Data origin: patent EP0097039A1

# System: Herpes Simplex type 1 virus (HFEM strain)
# Protocol Description: plaque reduction assay in Vero cells infected with Herpes Simplex type 1 virus
# Assay type: cell-based
# Setup Conditions: Human alphaherpesvirus 1, 96 h; concentration causing 50% reduction in number of virus plaques; Vero cells, HSV-1 HFEM strain, 4 days at 37 C; read-out: PDD50 (the source's name)
Just a reminder that ties go to label 0: only EC50 strictly below 0.4 µg/mL counts as label 1.

Examples from the recorded data:
O=C(CCl)OC[C@H]1O[C@@H](n2cc(/C=C/Br)c(=O)[nH]c2=O)C[C@@H]1O = label 1
O=C(O[C@H]1C[C@H](n2cc(/C=C/Br)c(=O)[nH]c2=O)O[C@@H]1CO)C(Cl)c1ccccc1 (stereo partly drawn) = label 1
O=C(OC[C@H]1O[C@@H](n2cc(/C=C/Br)c(=O)[nH]c2=O)C[C@@H]1OC(=O)[C@@H](O)Cc1ccccc1)[C@@H](O)Cc1ccccc1 = label 0

Request: Confirm or reject: EC50 of "O=C(OC[C@H]1O[C@@H](n2cc(/C=C/Br)c(=O)[nH]c2=O)C[C@@H]1OC(=O)[C@H](O)c1ccccc1)[C@H](O)c1ccccc1" lies strictly below 0.4 µg/mL
Response: label 0

Request: Hello, I'm reviewing records and need to know if EC50 of "O=C(OC[C@H]1O[C@@H](n2cc(/C=C/Br)c(=O)[nH]c2=O)C[C@@H]1OC(=O)[C@@H](O)c1ccccc1)[C@@H](O)c1ccccc1" is below 0.4 µg/mL. Could you check?
Response: label 0

Request: Check if EC50 falls below 0.4 µg/mL for "O=C(OC[C@H]1O[C@@H](n2cc(/C=C/Br)c(=O)[nH]c2=O)C[C@@H]1O)[C@H](O)c1ccccc1" .
Response: label 1

* * *

# Protocol Description: cytotoxicity (minimum toxic concentration) in the infected Vero cell cultures
# Assay type: cell-based, African Green Monkey
# Setup Conditions: monkey; minimum concentration of test compound which caused cytotoxicity; Vero cells, highest concentration tested 100 µg/ml; read-out: MTD
Assay Endpoint: MCC at 96 h

Study these solved cases before continuing.
COCC(=O)OC[C@H]1O[C@@H](n2cc(/C=C/Br)c(=O)[nH]c2=O)C[C@@H]1O = > 100 µg/mL
CC(C)(Oc1ccc(Cl)cc1)C(=O)OCC(=O)OC[C@H]1O[C@@H](n2cc(/C=C/Br)c(=O)[nH]c2=O)C[C@@H]1OC(=O)COC(=O)C(C)(C)Oc1ccc(Cl)cc1 = > 100 µg/mL
CCCN(CCC)S(=O)(=O)c1ccc(C(=O)OCC(=O)OC[C@H]2O[C@@H](n3cc(/C=C/Br)c(=O)[nH]c3=O)C[C@@H]2OC(=O)COC(=O)c2ccc(S(=O)(=O)N(CCC)CCC)cc2)cc1 = > 100 µg/mL
CC(C)C[C@H](O)C(=O)OC[C@H]1O[C@@H](n2cc(/C=C/Br)c(=O)[nH]c2=O)C[C@@H]1O = > 100 µg/mL
CCC(Br)C(=O)OC[C@H]1O[C@@H](n2cc(/C=C/Br)c(=O)[nH]c2=O)C[C@@H]1O (stereo partly drawn) = > 100 µg/mL

Request: Return reported MCC at 96 h. Input molecule: CCC(Br)C(=O)OC[C@H]1O[C@@H](n2cc(/C=C/Br)c(=O)[nH]c2=O)C[C@@H]1OC(=O)C(Br)CC (stereo partly drawn)
Response: 100 µg/mL

* * *

Give EC50 for every item shown.
# System: Herpes Simplex type 1 virus (HFEM strain)
# Protocol Description: plaque reduction assay in Vero cells infected with Herpes Simplex type 1 virus
# Assay type: cell-based
# Setup Conditions: Human alphaherpesvirus 1, 96 h; concentration causing 50% reduction in number of virus plaques; Vero cells, HSV-1 HFEM strain, 4 days at 37 C; read-out: PDD50 (the source's name)
Numbers only, in µg/mL.

Please review the following examples before continuing.
CC(Cl)C(=O)OC[C@H]1O[C@@H](n2cc(/C=C/Br)c(=O)[nH]c2=O)C[C@@H]1O (stereo partly shown) = 0.14
CC(Cl)C(=O)OC[C@H]1O[C@@H](n2cc(/C=C/Br)c(=O)[nH]c2=O)C[C@@H]1OC(=O)C(C)Cl (stereo partly shown) = 0.14
COCC(=O)OC[C@H]1O[C@@H](n2cc(/C=C/Br)c(=O)[nH]c2=O)C[C@@H]1OC(=O)COC = 0.17

Batch request: EC50 per item, same order as input.
1. O=C(OC[C@H]1O[C@@H](n2cc(/C=C/Br)c(=O)[nH]c2=O)C[C@@H]1OC(=O)C(Cl)c1ccccc1)C(Cl)c1ccccc1 (stereo partly shown)
2. O=C(CCl)OC[C@H]1O[C@@H](n2cc(/C=C/Br)c(=O)[nH]c2=O)C[C@@H]1OC(=O)CCl
3. O=C(COc1ccccc1)OC[C@H]1O[C@@H](n2cc(/C=C/Br)c(=O)[nH]c2=O)C[C@@H]1OC(=O)COc1ccccc1
4. CCC(Br)C(=O)OC[C@H]1O[C@@H](n2cc(/C=C/Br)c(=O)[nH]c2=O)C[C@@H]1O (stereo partly shown)

Response:
0.34
0.14
0.57
0.16

* * *

# System: Herpes Simplex type 1 virus (HFEM strain)
# Protocol Description: plaque reduction assay in Vero cells infected with Herpes Simplex type 1 virus
# Format: cell-based
# Setup Conditions: Human alphaherpesvirus 1, 96 h; same PD50 expressed in µM; Vero cells, HSV-1 HFEM strain, 4 days at 37 C; read-out: PDD50 (the source's name)
Assay Endpoint: EC50 (µM)
Give bare numbers, in µM.

Sample answers from the record:
CC(Cl)C(=O)OC[C@H]1O[C@@H](n2cc(/C=C/Br)c(=O)[nH]c2=O)C[C@@H]1O (stereo partly drawn) = 0.33
CCC(Br)C(=O)OC[C@H]1O[C@@H](n2cc(/C=C/Br)c(=O)[nH]c2=O)C[C@@H]1OC(=O)C(Br)CC (stereo partly drawn) = 0.32

Attention now turns to another entry.
Request: # return EC50 for O=C(OC[C@H]1O[C@@H](n2cc(/C=C/Br)c(=O)[nH]c2=O)C[C@@H]1O)C(Cl)c1ccccc1 (stereo partly drawn) , test system: Herpes Simplex type 1 virus (HFEM strain)
Response: 0.14

* * *

# Test system: Herpes Simplex type 1 virus (HFEM strain)
# Protocol Description: plaque reduction assay in Vero cells infected with Herpes Simplex type 1 virus
# Format: cell-based
# Setup Conditions: Human alphaherpesvirus 1, 96 h; concentration causing 50% reduction in number of virus plaques; Vero cells, HSV-1 HFEM strain, 4 days at 37 C; read-out: PDD50 (the source's name)
Assay Endpoint: EC50 (µg/mL)
Give bare numbers, in µg/mL.

CCCN(CCC)S(=O)(=O)c1ccc(C(=O)OCC(=O)OC[C@H]2O[C@@H](n3cc(/C=C/Br)c(=O)[nH]c3=O)C[C@@H]2O)cc1 [Example 7] = 0.24
O=C(COc1ccccc1)OC[C@H]1O[C@@H](n2cc(/C=C/Br)c(=O)[nH]c2=O)C[C@@H]1O [Example 35] = 0.18
CCC(Br)C(=O)OC[C@H]1O[C@@H](n2cc(/C=C/Br)c(=O)[nH]c2=O)C[C@@H]1OC(=O)C(Br)CC (stereo partly drawn) [Example 34] = 0.2
CC(=O)OC(C)C(=O)OC[C@H]1O[C@@H](n2cc(/C=C/Br)c(=O)[nH]c2=O)C[C@@H]1O (stereo partly drawn) [Example 10] = 0.18
CCCN(CCC)S(=O)(=O)c1ccc(C(=O)OCC(=O)O[C@H]2C[C@H](n3cc(/C=C/Br)c(=O)[nH]c3=O)O[C@@H]2CO)cc1 [Example 8] = 0.22

Proceeding to the next molecule to report its EC50.
Request: Give measured EC50 for O=C(OC[C@H]1O[C@@H](n2cc(/C=C/Br)c(=O)[nH]c2=O)C[C@@H]1O)[C@@H](O)c1ccccc1 [Example 23] (Herpes Simplex type 1 virus (HFEM strain)).
Response: 0.16
